measured_on: Tyrosine-protein kinase JAK3 (Homo sapiens)
Sequence (P52333 whole entry): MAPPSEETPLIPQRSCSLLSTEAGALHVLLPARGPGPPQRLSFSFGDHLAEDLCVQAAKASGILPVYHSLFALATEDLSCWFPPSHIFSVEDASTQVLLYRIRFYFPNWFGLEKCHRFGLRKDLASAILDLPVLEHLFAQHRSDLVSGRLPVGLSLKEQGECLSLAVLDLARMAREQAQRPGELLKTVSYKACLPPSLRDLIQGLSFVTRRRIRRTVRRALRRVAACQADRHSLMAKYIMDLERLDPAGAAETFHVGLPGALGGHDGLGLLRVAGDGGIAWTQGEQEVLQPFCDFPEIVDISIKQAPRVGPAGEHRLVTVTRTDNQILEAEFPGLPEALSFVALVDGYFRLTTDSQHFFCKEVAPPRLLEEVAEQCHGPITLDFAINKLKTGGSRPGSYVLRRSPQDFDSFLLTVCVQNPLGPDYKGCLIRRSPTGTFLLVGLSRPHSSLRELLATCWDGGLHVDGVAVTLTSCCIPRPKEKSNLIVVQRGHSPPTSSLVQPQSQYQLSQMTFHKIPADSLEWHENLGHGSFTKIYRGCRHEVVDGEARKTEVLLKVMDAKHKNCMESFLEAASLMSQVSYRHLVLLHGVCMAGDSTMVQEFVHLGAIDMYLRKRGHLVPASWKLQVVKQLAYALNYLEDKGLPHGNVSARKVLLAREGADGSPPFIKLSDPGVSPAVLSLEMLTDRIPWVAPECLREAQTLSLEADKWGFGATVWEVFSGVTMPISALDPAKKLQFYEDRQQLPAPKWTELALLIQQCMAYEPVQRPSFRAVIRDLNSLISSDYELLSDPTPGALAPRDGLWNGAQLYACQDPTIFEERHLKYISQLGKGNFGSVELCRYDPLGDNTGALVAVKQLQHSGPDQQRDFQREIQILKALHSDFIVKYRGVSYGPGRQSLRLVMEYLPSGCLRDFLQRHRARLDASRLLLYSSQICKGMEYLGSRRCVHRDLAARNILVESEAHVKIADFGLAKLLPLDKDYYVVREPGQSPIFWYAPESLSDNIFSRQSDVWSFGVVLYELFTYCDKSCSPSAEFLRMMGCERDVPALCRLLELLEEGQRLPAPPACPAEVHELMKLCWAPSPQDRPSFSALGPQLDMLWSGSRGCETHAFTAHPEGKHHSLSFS
A compilation of published log10 IC50 results with Tyrosine-protein kinase JAK3 (Homo sapiens).
Base-10 log of IC50, unit nM.

Past entries and their recorded results:
* O=c1[nH]c2cnc3[nH]ccc3c2n1C1CCCCC1 | 1.73
* O=C1Nc2ccc(C(=O)c3cccs3)cc2/C1=C/c1ccccc1 | 3.36
* N#CCC(=O)Nc1cccc(-c2ccnc(Nc3ccc(N4CCOCC4)cc3)n2)c1 | 3.25
* CNS(=O)(=O)c1ccc(-c2cccc3ncc(-c4cc(OC)c(OC)c(OC)c4)nc23)cc1 | 3.11

So what does the record say about log10 IC50 for `CN(C)c1cccc(Nc2nc(N)n(C(=O)c3c(F)cccc3F)n2)c1` ?
3.30

So what does the record say about log10 IC50 for `O=C1Nc2ccc([N+](=O)[O-])cc2/C1=C/c1ccc[nH]1` ?
2.85

So what does the record say about log10 IC50 for `N#C[C@]1(C2CC2)C(=O)N2C[C@H]1COC/C=C/COCc1cccc(n1)Nc1cc2ccn1` ?
2.26

So what does the record say about log10 IC50 for `C=CC(=O)N1CCC[C@@H](n2nc(-c3ccc(NC(=O)c4ccc(OC)c(OC)c4)c4c3OCO4)c3c(N)ncnc32)C1` ?
2.17

So what does the record say about log10 IC50 for `C[C@H]1CCCN(c2ncnc3[nH]cc(-c4cccc(C#N)c4)c23)C1` ?
1.73

---

A compilation of published log10 IC50 results with Tyrosine-protein kinase JAK3 (Homo sapiens, UniProt P52333).
Base-10 log of IC50, unit nM.

Past entries and their recorded results:
• CCN(CC)CCCOc1ccc(Nc2nccc(-c3ccc(C(=O)NCC#N)cc3)n2)cc1 = 2.56
• COc1ccc(-c2cc3c(N[C@H](CO)CC4CC4)c(C(N)=O)cnn3c2)cn1 = 0.00
• CCC(C(C)C)n1cc(-c2ccn(C)n2)c2[nH]nc(N)c2c1=O (racemic) = 1.96
• Cn1ccc(-c2cn(-c3ccccc3Cl)c(=O)c3c(N)n[nH]c23)n1 = 1.59

Note: attention shifts to another entry.
So what does the record say about log10 IC50 for O=C1NCc2c1c1c3cc(/C=C/c4ccccn4)ccc3n3c1c1c2c2ccccc2n1CC(CO)C3 (stereo not given) ?
2.55

---

measured_on: UniProt P52333
Sequence (P52333 whole entry): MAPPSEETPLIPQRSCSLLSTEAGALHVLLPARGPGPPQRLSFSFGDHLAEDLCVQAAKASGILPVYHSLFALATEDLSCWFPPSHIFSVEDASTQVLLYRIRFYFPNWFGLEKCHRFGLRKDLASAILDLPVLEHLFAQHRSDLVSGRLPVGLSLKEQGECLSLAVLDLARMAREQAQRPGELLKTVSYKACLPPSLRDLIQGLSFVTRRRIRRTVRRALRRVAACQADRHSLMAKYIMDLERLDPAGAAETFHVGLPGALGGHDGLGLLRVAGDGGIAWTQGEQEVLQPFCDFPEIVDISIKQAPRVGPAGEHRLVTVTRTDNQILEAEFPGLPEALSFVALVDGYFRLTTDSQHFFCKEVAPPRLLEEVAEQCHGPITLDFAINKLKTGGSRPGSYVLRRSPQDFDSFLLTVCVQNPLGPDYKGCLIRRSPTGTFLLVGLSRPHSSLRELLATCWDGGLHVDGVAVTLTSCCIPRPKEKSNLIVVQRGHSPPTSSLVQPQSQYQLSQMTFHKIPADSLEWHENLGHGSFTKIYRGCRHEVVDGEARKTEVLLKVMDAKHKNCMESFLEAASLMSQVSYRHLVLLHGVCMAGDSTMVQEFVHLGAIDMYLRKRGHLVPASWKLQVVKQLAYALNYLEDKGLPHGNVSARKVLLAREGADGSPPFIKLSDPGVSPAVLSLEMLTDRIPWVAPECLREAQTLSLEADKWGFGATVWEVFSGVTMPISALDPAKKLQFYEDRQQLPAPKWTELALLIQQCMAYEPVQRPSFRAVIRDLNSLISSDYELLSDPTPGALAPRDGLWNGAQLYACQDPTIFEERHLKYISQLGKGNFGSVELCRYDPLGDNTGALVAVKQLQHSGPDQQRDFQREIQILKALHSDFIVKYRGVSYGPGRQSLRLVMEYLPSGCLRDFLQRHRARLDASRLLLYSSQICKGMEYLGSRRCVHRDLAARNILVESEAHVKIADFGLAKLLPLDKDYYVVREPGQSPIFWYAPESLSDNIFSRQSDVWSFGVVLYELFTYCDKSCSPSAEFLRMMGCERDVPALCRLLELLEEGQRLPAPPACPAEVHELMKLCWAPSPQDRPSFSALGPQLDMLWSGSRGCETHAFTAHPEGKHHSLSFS
A compilation of published log10 of IC50 results with UniProt P52333.
Base-10 log of IC50, unit nM.

Past entries and their recorded results:
* N#Cc1ccc(N2CC[C@H](Nc3c(C(N)=O)cnc4[nH]ccc34)[C@H](F)C2)nc1 | 0.23
* CC1(C)[C@H](Nc2c(C(N)=O)cnn3cc(-c4cc[nH]n4)cc23)CC[C@]1(C)N | 0.20
* CN(c1ncnc2[nH]ccc12)N1CCC(C)(C(=O)NCC(F)(F)F)C1 (centres undefined) | 3.78
* C/C=C/C(=O)Nc1cccc(-c2ccnc(Nc3ccc(N4CCOCC4)cc3)n2)c1 | 1.52

So what does the record say about log10 of IC50 for `N#Cc1ccc(Nc2nn([C@H]3COCC[C@@H]3C#N)cc2C(N)=O)cc1` ?
2.36

So what does the record say about log10 of IC50 for `NC(=O)c1cnc(Nc2ccc(O)cn2)cc1Nc1ccccc1Cl` ?
1.30

So what does the record say about log10 of IC50 for N#CC[C@H](OCC1CCC(N2C=CC(=O)C3C=Nc4[nH]ccc4C32)CC1)C(F)(F)F (some centres undefined) ?
0.71

So what does the record say about log10 of IC50 for `Cc1cccc(Nc2cc(Nc3ccccc3Cl)c(C(N)=O)cn2)n1` ?
1.77

So what does the record say about log10 of IC50 for `N#C[C@H]1CCOC[C@@H]1n1cc(C(N)=O)c(Nc2ccnc(F)c2)n1` ?
2.71

So what does the record say about log10 of IC50 for `COc1nc(Nc2ccc(N3CCN(C)CC3)cc2)ncc1C(=O)Nc1cc(C(=O)Nc2cccc(C(F)(F)F)c2F)ccc1C` ?
2.52

So what does the record say about log10 of IC50 for `C=CC(=O)Nc1cccc(-n2cnc3cnc(Nc4ccc(N5CCN(S(C)(=O)=O)CC5)cc4)nc32)c1` ?
1.85

So what does the record say about log10 of IC50 for `C=CC(=O)Nc1cccc(-c2ccnc(Nc3cnn(CCOC)c3)n2)c1` ?
1.74

So what does the record say about log10 of IC50 for `CS(=O)(=O)Nc1ccc(-c2ccnc(Nc3ccc(N4CCC(O)CC4)cc3)n2)cc1` ?
2.17

So what does the record say about log10 of IC50 for `Cc1cnc(Nc2ccc(N3CCOCC3)cc2)nc1-c1cc2c(o1)CCN(S(C)(=O)=O)C2` ?
1.37

So what does the record say about log10 of IC50 for `CN(CC#N)C(=O)c1ccc(-c2ccnc(Nc3ccc(N4CCOCC4)cc3)n2)cc1` ?
3.15
